System: RSV Long strain
Assay: Viral Cytopathic Effect (CPE) Assay
Type: cell-based
Settings: human respiratory syncytial virus, 144 h, cell viability after 6 days, Cell Counting kit-8
QUANTITY NAME: EC50 (nM)

>  <COMPOUND>
CS(=O)(=O)c1nn(Cc2nc3cc(Cl)ccc3n2C2C[C@@H](O)[C@H](O)C2)c2cnccc12

>  <READOUT UNITS>
nM

>  <EC50>
6.1

$$$$

1. CS(=O)(=O)c1nn(Cc2nc3cc(Cl)ccc3n2CCCC(F)(F)F)c2cnccc12
2. C[C@@H](c1nc2cc(Cl)ccc2n1CCC(F)(F)F)n1nc(S(C)(=O)=O)c2ccncc21
3. CS(=O)(=O)c1nn(Cc2nc3cc(Cl)ccc3n2C2CNC3(COC3)C2)c2cnccc12 (stereo not shown)
Query string: Order the records so the highest EC50 appears first and the lowest last. Write out the labels following the order that was asked for.
Result string: 2, 3, 1
(2: 68 nM, 3: 19.4 nM, 1: 5 nM)

* * *

Assay: single dose PK in male ICR mouse (IV and PO)
Type: in vivo
Settings: mouse, plasma; male ICR mice; PO (12.2 mg/kg)
QUANTITY NAME: AUC(0-t) (ng·h/mL)
Write down the numeric answer in ng·h/mL and omit the unit.

Query string: Tell me the measured AUC(0-t) of "CS(=O)(=O)c1nn(Cc2nc3cc(Cl)ccc3n2CC2COC2)c2cnccc12" , please.
Result string: 2430

* * *

Tested on: RSV Long strain
Assay: Viral Cytopathic Effect (CPE) Assay
Format: cell-based
Conditions: human respiratory syncytial virus, 144 h, cell viability after 6 days, Cell Counting kit-8
pEC50: −log10 of the molar value.
QUANTITY NAME: pEC50

I. CS(=O)(=O)CCn1c(Cn2nc(S(C)(=O)=O)c3ccncc32)cc2cc(Cl)cc(F)c21
II. CS(=O)(=O)c1nn(Cc2nc3cc(Cl)ccc3n2C2CCNC2)c2cnccc12 (centres unmarked)
III. CS(=O)(=O)c1nn(Cc2nc3cc(Cl)ccc3n2-c2ccc(F)nc2)c2cnccc12
Query string: Please give the order of these compounds when sorted by pEC50, largest value leading. Write out the labels following the order that was asked for.
Result string: I, III, II

P. CS(=O)(=O)c1nn(Cc2nc3cc(Cl)ccc3n2C2CCC(F)(F)C2)c2cnccc12 (centres unmarked)
Q. CC(C)(O)CCCn1c(Cn2nc(S(C)(=O)=O)c3ccncc32)nc2cc(Cl)ccc21
R. CS(=O)(=O)CCCn1c(Cn2nc(S(C)(=O)=O)c3ccncc32)nc2cc(Cl)ccc21
Query string: Order the records so the highest pEC50 appears first and the lowest last. Write out the labels following the order that was asked for.
Result string: R, Q, P
(R: 8.34, Q: 8.10, P: 7.84)

1. CS(=O)(=O)c1nn(Cc2nc3cc(Cl)ccc3n2CCC(F)(F)F)c2cnccc12
2. CS(=O)(=O)c1nn(Cc2nc3cc(Cl)ccc3n2-c2ccc(F)nc2)c2c[n+]([O-])ccc12
Query string: Would you let me know which has the greater pEC50 value, 1 or 2 ? Response format: the label of the selected entry.
Result string: 1

* * *

Assay: single dose PK in male ICR mouse (IV and PO)
Assay type: in vivo
Conditions: mouse, plasma; male ICR mice; IV (1 mg/Kg)
QUANTITY NAME: half-life (h)
Write down the numeric answer in h and omit the unit.

Query string: Tell me the measured half-life of CS(=O)(=O)c1nn(Cc2nc3cc(Cl)ccc3n2CC2COC2)c2cnccc12 [Example 2-22] , please.
Result string: 1.55

* * *

Test system: RSV Long strain
Assay: Viral Cytopathic Effect (CPE) Assay
Assay type: cell-based
Details: human respiratory syncytial virus, 144 h, cell viability after 6 days, Cell Counting kit-8
QUANTITY NAME: EC50 (nM)

a. CS(=O)(=O)c1nn(Cc2nc3cc(Cl)ccc3n2CCC(O)C(F)(F)F)c2cnccc12 (stereo not shown)
b. CC(C)(O)C(=O)N1CC[C@@H](n2c(Cn3nc(S(C)(=O)=O)c4ccncc43)nc3cc(Cl)ccc32)C1
c. CS(=O)(=O)c1nn(Cc2nc3cc(Cl)ccc3n2[C@H]2CCN(CC(F)(F)F)C2)c2cnccc12
d. CS(=O)(=O)c1nn(Cc2nc3cc(Cl)ccc3n2CCC2COC2)c2cnccc12
Query string: Put the above molecules in order of rising EC50, beginning with the smallest. Write out the labels following the order that was asked for.
Result string: a, d, b, c
(a: 1.6 nM, d: 6 nM, b: 13 nM, c: 1170 nM)

* * *

Test system: RSV Long strain
Test: Viral Cytopathic Effect (CPE) Assay
Format: cell-based
Conditions: human respiratory syncytial virus, 144 h, cell viability after 6 days, Cell Counting kit-8
QUANTITY NAME: EC50 (nM)

>  <MOLECULE>
CS(=O)(=O)c1nn(Cc2nc3cc(Cl)ccc3n2C2COC2)c2ccccc12

>  <TEST RESULT>
21.8

$$$$
>  <MOLECULE>
CS(=O)(=O)CCCn1c(Cn2cc(S(C)(=O)=O)c3ccncc32)nc2cc(Cl)ccc21

>  <TEST RESULT>
82

$$$$
>  <MOLECULE>
CS(=O)(=O)c1nn(Cc2nc3cc(Cl)ccc3n2C2CCOCC2)c2cnccc12

>  <TEST RESULT>
7.72

$$$$
>  <MOLECULE>
CC1(CCn2c(Cn3nc(S(C)(=O)=O)c4ccncc43)nc3cc(Cl)ccc32)COC1

>  <TEST RESULT>
6.79

$$$$

a. CS(=O)(=O)CCCn1c(Cn2nc(S(C)(=O)=O)c3ccccc32)nc2cc(Cl)ccc21
b. CS(=O)(=O)c1nn(Cc2nc3cc(Cl)ccc3n2C2CCC(O)CC2)c2cnccc12 (stereo not shown)
Query string: Would you let me know which has the greater EC50 value, a or b ? Response format: the label of the selected entry.
Result string: a

A. CS(=O)(=O)c1nn(Cc2nc3cc(Cl)ccc3n2[C@H]2CC[C@@](C)(O)CC2)c2cnccc12
B. CS(=O)(=O)c1nn(Cc2nc3cc(Cl)cc(F)c3n2CCC(F)(F)F)c2cnccc12
Query string: Hi there, can you help? I need to know whether A or B has lower measured EC50. Response format: the label of the selected entry.
Result string: A

* * *

Experiment: single dose PK in male ICR mouse (IV and PO)
Assay type: in vivo
Conditions: mouse, plasma; male ICR mice; PO (12.2 mg/kg)
QUANTITY NAME: half-life (h)
Write down the numeric answer in h and omit the unit.

Query string: Tell me the measured half-life of "CS(=O)(=O)c1nn(Cc2nc3cc(Cl)ccc3n2CC2COC2)c2cnccc12" , please.
Result string: 2.45

* * *

Test system: RSV Long strain
Assay: Viral Cytopathic Effect (CPE) Assay
Assay type: cell-based
Settings: human respiratory syncytial virus, 144 h, cell viability after 6 days, Cell Counting kit-8
pEC50: −log10 of the molar value.
QUANTITY NAME: pEC50

>  <COMPOUND>
CS(=O)(=O)CCn1c(Cn2nc(S(C)(=O)=O)c3ccccc32)nc2cc(Cl)ccc21

>  <pEC50>
7.58

$$$$

a. CS(=O)(=O)c1nn(Cc2nc3cc(Cl)ccc3n2[C@@H]2CCN(CCO)C2)c2cnccc12
b. CS(=O)(=O)c1nn(Cc2nc3cc(Cl)ccc3n2-c2ccc(F)nc2)c2ccccc12
Query string: Would you let me know which has the greater pEC50 value, a or b ? Response format: the label of the selected entry.
Result string: a

1. CS(=O)(=O)c1nn(Cc2nc3cc(Cl)ccc3n2C2CNC(=O)C2)c2cnccc12 (stereo not shown)
2. CC(C)C(=O)N1CC[C@@H](n2c(Cn3nc(S(C)(=O)=O)c4ccncc43)nc3cc(Cl)ccc32)C1
3. C[C@@]1(O)CC[C@H](n2c(Cn3nc(S(C)(=O)=O)c4ccncc43)nc3cc(Cl)ccc32)C1 (relative stereo)
Query string: Sort the compounds on pEC50; start with the lowest figure. Write out the labels following the order that was asked for.
Result string: 3, 1, 2
(3: 7.75, 1: 8.07, 2: 8.40)

* * *

Tested on: RSV Long strain
Experiment: Viral Cytopathic Effect (CPE) Assay
Assay type: cell-based
Conditions: human respiratory syncytial virus, 144 h, cell viability after 6 days, Cell Counting kit-8
pEC50: −log10 of the molar value.
QUANTITY NAME: pEC50

These recorded examples may help you get a feel for the data.
>  <SMILES REPR>
CS(=O)(=O)c1nn(Cc2nc3cc(Cl)ccc3n2C2CC3(COC3)C2)c2cnccc12

>  <pEC50>
8.06

$$$$
>  <SMILES REPR>
CS(=O)(=O)c1nn(Cc2nc3cc(Cl)cc(F)c3n2CCCC(F)(F)F)c2cnccc12

>  <pEC50>
8.15

$$$$
>  <SMILES REPR>
CCS(=O)(=O)c1nn(Cc2nc3cc(Cl)ccc3n2CCCS(C)(=O)=O)c2ccccc12

>  <pEC50>
7.42

$$$$
>  <SMILES REPR>
COc1ccc(-n2c(Cn3nc(S(C)(=O)=O)c4ccccc43)nc3cc(Cl)ccc32)cn1

>  <pEC50>
7.48

$$$$

1. CC(C)S(=O)(=O)c1cn(Cc2nc3cc(Cl)ccc3n2CCCS(C)(=O)=O)c2ccccc12
2. CS(=O)(=O)c1nn(Cc2nc3cc(Cl)ccc3n2[C@H]2C[C@H](CO)C2)c2cnccc12
3. CS(=O)(=O)c1nn(Cc2nc3cc(Cl)ccc3n2CCOCCO)c2cnccc12
Query string: Sort the molecules on pEC50; start with the lowest figure. Write out the labels following the order that was asked for.
Result string: 1, 3, 2
(1: 6.92, 3: 7.82, 2: 8.52)

Sourced from patent US9206191B2
